Here, each record is paired with measured microsomal CLint at 1 uM data.
Test: Metabolic stability in human hepatic microsome
Format: in vitro ADME
Details: microsomes, pH 7.4; human hepatic microsome, NADPH(+); read-out: CL NADPH(+)
Positions of bridges follow the written chain, without caps; N, C: chain ends. Non-standard residues stand in square brackets, D forms with d. Residues, ends and D or L forms follow the SMILES beside them. *: point of attachment. Phe(4-CF3) = N[C@@H](Cc1ccc(C(F)(F)F)cc1)C(=O)O; NMeF = CN[C@@H](Cc1ccccc1)C(=O)O; NMeL = CN[C@@H](CC(C)C)C(=O)O; NMeA = CN[C@@H](C)C(=O)O; Piperidide = C1CCN(*)CC1; Aze = O=C(O)[C@@H]1CCN1; β3hA = C[C@H](N)CC(=O)O; Sar = CNCC(=O)O
Use µL/min/mg as the unit, but write only the number.

[in] Provide measured microsomal CLint at 1 uM value, entry: CC(C)C[C@@H]1NC(=O)[C@H](CC(C)C)N(C)C(=O)[C@H](Cc2ccccc2)NC(=O)[C@H](C)N(C)C(=O)C[C@@H](C(=O)N2CCCCC2)NC(=O)[C@H](Cc2ccccc2)NC(=O)[C@@H]2CCCN2C(=O)[C@H]([C@@H](C)O)NC(=O)[C@H](CC(C)C)N(C)C(=O)CNC(=O)[C@@H]2CCN2C1=O [DP-554] ([NMeA]F[NMeL]L[Aze]G[NMeL]TPFD-Piperidide; lactam N-11)
[out] 80

Further cases:
[in] Provide measured microsomal CLint at 1 uM value, entry: CC(C)C[C@H]1C(=O)N[C@@H](C(C)C)C(=O)N[C@H](C(=O)N(C)[C@@H](Cc2ccccc2)C(=O)N[C@@H](C)C(=O)N2CCCCC2)CC(=O)N[C@H](C(C)C)C(=O)N(C)[C@@H](Cc2ccccc2)C(=O)N(C)[C@@H](C)C(=O)N(C)[C@@H](CC(C)C)C(=O)N[C@@H]([C@@H](C)O)C(=O)N(C)CC(=O)N1C [DP-198] ([dV][NMeF][NMeA][NMeL]T[Sar][NMeL]VD[NMeF]A-Piperidide; lactam N-9)
[out] 34

[in] Provide measured microsomal CLint at 1 uM value, entry: CC(C)C[C@@H]1NC(=O)[C@@H](C(C)C)NC(=O)C[C@H](C)NC(=O)[C@H](CC(C)C)N(C)C(=O)[C@H](CC(C)C)N(C)C(=O)[C@H](Cc2ccc(C(F)(F)F)cc2)NC(=O)[C@H](C)N(C)C(=O)[C@H]([C@@H](C)O)NC1=O [DP-825] (cyclo(LT[NMeA][Phe(4-CF3)][NMeL][NMeL][β3hA][dV]))
[out] 168

###

Here, each record is paired with measured microsomal CLint at 1 uM data.
Assay: Metabolic stability in human hepatic microsome
Type: in vitro ADME
Settings: human, microsomes, pH 7.4, CL NADPH(+)
Starred links: 1 amine or outer side, 2 acyl side, 3 side chain; linkers in the order of their positions; H or OH if unused. Positions of bridges follow the written chain, without caps; N, C: chain ends. Non-standard residues stand in square brackets, D forms with d. Residues, ends and D or L forms follow the SMILES beside them. *: point of attachment. NMePhe(3-Cl) = CN[C@@H](Cc1cccc(Cl)c1)C(=O)O; NMeF = CN[C@@H](Cc1ccccc1)C(=O)O; NMeGABA = CN(CCCC(=O)[*:2])[*:1]; NMeI = CC[C@H](C)[C@H](NC)C(=O)O; NMeβAla = CN(CCC(=O)[*:2])[*:1]; NMeL = CN[C@@H](CC(C)C)C(=O)O; NMeV = CN[C@H](C(=O)O)C(C)C; NMeA = CN[C@@H](C)C(=O)O; Piperidide = C1CCN(*)CC1; β3hA = C[C@H](N)CC(=O)O; Sar = CNCC(=O)O; tBu = CC(C)(C)*
Use µL/min/mg as the unit, but write only the number.

Guide cases for microsomal CLint at 1 uM, answers given:
[in] Provide measured microsomal CLint at 1 uM value, entry: CC(C)C[C@H]1C(=O)N(C)[C@@H](Cc2ccccc2)C(=O)N[C@@H]([C@@H](C)O)C(=O)N(C)[C@@H](C)C(=O)N(C)[C@@H](CC(C)C)C(=O)N(C)[C@@H](CC(C)C)C(=O)N[C@H](C(=O)N2CCCCC2)CC(=O)N(C)CCCC(=O)N[C@@H](COC(C)(C)C)C(=O)N(C)CC(=O)N1C [DP-122] ([NMeGABA]S(tBu)[Sar][NMeL][NMeF]T[NMeA][NMeL][NMeL]D-Piperidide; lactam N-10)
[out] 169

[in] Provide measured microsomal CLint at 1 uM value, entry: CC[C@H](C)[C@H]1C(=O)N[C@@H](Cc2ccccc2)C(=O)N(C)[C@@H](Cc2ccccc2)C(=O)N[C@@H]([C@@H](C)O)C(=O)N2CCC[C@H]2C(=O)N[C@@H](CC(C)C)C(=O)N[C@H](C(=O)N2CCCCC2)CC(=O)N[C@@H](C)C(=O)NCC(=O)N(C)[C@@H](C(C)C)C(=O)N(C)[C@@H](CC(C)C)C(=O)N[C@@H](C)C(=O)N1C [DP-26] (AG[NMeV][NMeL]A[NMeI]F[NMeF]TPLD-Piperidide; lactam N-12)
[out] 62

[in] Provide measured microsomal CLint at 1 uM value, entry: CC[C@H](C)[C@@H]1NC(=O)[C@H](Cc2ccccc2)N(C)C(=O)[C@H](CC(C)C)N(C)C(=O)[C@H](Cc2ccccc2)N(C)C(=O)[C@H]([C@@H](C)O)NC(=O)CCN(C)C(=O)C[C@@H](C(=O)N(C)[C@@H](Cc2ccccc2)C(=O)N[C@@H](C)C(=O)N2CCCCC2)NC(=O)[C@H](CC(C)C)N(C)C(=O)[C@H](C)N(C)C(=O)[C@H](CC(C)C)N(C)C1=O [DP-299] ([NMeβAla]T[NMeF][NMeL][NMeF]I[NMeL][NMeA][NMeL]D[NMeF]A-Piperidide; lactam N-10)
[out] 56

[in] Provide measured microsomal CLint at 1 uM value, entry: CC[C@H](C)[C@@H]1NC(=O)[C@H](CC(C)C)N(C)C(=O)[C@H](Cc2ccccc2)N(C)C(=O)[C@@H](C(C)C)NC(=O)C[C@H](C)NC(=O)[C@H](CC(C)C)N(C)C(=O)[C@H](C)N(C)C(=O)[C@H]([C@@H](C)O)NC(=O)[C@H](Cc2cccc(Cl)c2)N(C)C(=O)[C@H](CC(C)C)N(C)C1=O [DP-782] (cyclo(I[NMeL][NMePhe(3-Cl)]T[NMeA][NMeL][β3hA][dV][NMeF][NMeL]))
[out] 127

Further cases:
[in] Provide measured microsomal CLint at 1 uM value, entry: CC[C@H](C)[C@H]1C(=O)N[C@@H](C)C(=O)N(C)[C@@H](CC(C)C)C(=O)N[C@@H](COC(C)(C)C)C(=O)N(C)[C@@H](CC(C)C)C(=O)N[C@@H](C)CC(=O)N(C)CCC(=O)N[C@@H](Cc2ccccc2)C(=O)N(C)[C@@H](Cc2ccccc2)C(=O)N(C)[C@@H](CC(C)C)C(=O)N[C@@H]([C@@H](C)O)C(=O)N(C)[C@@H](C)C(=O)N1C [DP-756] (cyclo(A[NMeL]S(tBu)[NMeL][β3hA][NMeβAla]F[NMeF][NMeL]T[NMeA][NMeI]))
[out] 65

###

Experiment: Metabolic stability in human hepatic microsome
Format: in vitro ADME
Settings: microsomes, pH 7.4; human hepatic microsome, NADPH(+); read-out: CL NADPH(+)
Starred links: 1 amine or outer side, 2 acyl side, 3 side chain; linkers in the order of their positions; H or OH if unused. Positions of bridges follow the written chain, without caps; N, C: chain ends. Non-standard residues stand in square brackets, D forms with d. Residues, ends and D or L forms follow the SMILES beside them. *: point of attachment. NMePhe(3-Cl) = CN[C@@H](Cc1cccc(Cl)c1)C(=O)O; NMeF = CN[C@@H](Cc1ccccc1)C(=O)O; NMeGABA = CN(CCCC(=O)[*:2])[*:1]; NMeβAla = CN(CCC(=O)[*:2])[*:1]; AllylGly = C=CC[C@H](N)C(=O)O; NMeL = CN[C@@H](CC(C)C)C(=O)O; NMeV = CN[C@H](C(=O)O)C(C)C; NMeA = CN[C@@H](C)C(=O)O; Piperidide = C1CCN(*)CC1; Sar = CNCC(=O)O; tBu = CC(C)(C)*
Here, each record is paired with measured microsomal CLint at 1 uM data.
Use µL/min/mg as the unit, but write only the number.

[in] Provide measured microsomal CLint at 1 uM value, entry: CC[C@H](C)[C@H](NC(=O)[C@H](CC(C)C)NC(=O)[C@@H]1CCCN1C(=O)[C@H](CC(C)C)NC(=O)[C@H](CC(C)C)N(C)C(=O)[C@@H]1CC(=O)N[C@@H](Cc2ccccc2)C(=O)N[C@@H](CC(C)C)C(=O)N(C)[C@@H](CC(C)C)C(=O)N[C@@H]([C@@H](C)O)C(=O)N(C)[C@@H](Cc2cccc(Cl)c2)C(=O)N(C)[C@@H](C)C(=O)N(C)[C@@H](CC(C)C)C(=O)N1)C(=O)N1CCCCC1 [DP-925] (FL[NMeL]T[NMePhe(3-Cl)][NMeA][NMeL]D[NMeL]LPLI-Piperidide; lactam N-8)
[out] 2

[in] Provide measured microsomal CLint at 1 uM value, entry: CC(C)C[C@H]1C(=O)N(C)[C@@H](Cc2ccccc2)C(=O)N(C)[C@@H](C(C)C)C(=O)N[C@@H](Cc2ccccc2)C(=O)N[C@H](C(=O)N(C)[C@@H](Cc2ccccc2)C(=O)N[C@@H](C)C(=O)N2CCCCC2)CC(=O)N(C)[C@@H](C)C(=O)N[C@@H](C(C)C)C(=O)N(C)[C@@H](CC(C)C)C(=O)N[C@@H]([C@@H](C)O)C(=O)NCC(=O)N1C [DP-191] ([NMeA]V[NMeL]TG[NMeL][NMeF][NMeV]FD[NMeF]A-Piperidide; lactam N-10)
[out] 46

[in] Provide measured microsomal CLint at 1 uM value, entry: CC(C)C[C@H]1C(=O)N[C@@H]([C@@H](C)O)C(=O)N[C@H](C(=O)N(C)[C@@H](Cc2ccccc2)C(=O)N(C)[C@@H](Cc2ccccc2)C(=O)N[C@@H](C)C(=O)N2CCCCC2)CC(=O)N(C)CCCC(=O)N(C)[C@@H](C)C(=O)N(C)[C@@H](Cc2ccccc2)C(=O)N[C@@H](C(C)C)C(=O)N(C)[C@@H](CC(C)C)C(=O)N(C)CC(=O)N1C [DP-404] ([NMeGABA][NMeA][NMeF]V[NMeL][Sar][NMeL]TD[NMeF][NMeF]A-Piperidide; lactam N-9)
[out] 107

[in] Provide measured microsomal CLint at 1 uM value, entry: C=CC[C@@H]1NC(=O)[C@H](CC(C)C)N(C)C(=O)[C@H](C)N(C)C(=O)[C@@H](C(C)C)NC(=O)C[C@@H](C(=O)N2CCCCC2)NC(=O)[C@H]([C@@H](C)O)NC(=O)[C@H](CC(C)C)N(C)C(=O)[C@H](C)N(C)C(=O)[C@H](CC(C)C)N(C)C(=O)[C@H](Cc2ccccc2)NC(=O)[C@H](Cc2ccccc2)N(C)C1=O [DP-628] ([dV][NMeA][NMeL][AllylGly][NMeF]F[NMeL][NMeA][NMeL]TD-Piperidide; lactam N-11)
[out] 36

[in] Provide measured microsomal CLint at 1 uM value, entry: CC(C)C[C@H]1C(=O)N[C@@H](COC(C)(C)C)C(=O)N[C@H](C(=O)N2CCCCC2)CC(=O)N(C)CCC(=O)N(C)[C@@H](C)C(=O)N(C)[C@@H](Cc2ccccc2)C(=O)N(C)[C@@H](CC(C)C)C(=O)N[C@@H]([C@@H](C)O)C(=O)N(C)[C@@H](C)C(=O)N1C [DP-269] ([NMeβAla][NMeA][NMeF][NMeL]T[NMeA][NMeL]S(tBu)D-Piperidide; lactam N-9)
[out] 58
